Target: Lysosomal acid glucosylceramidase (Homo sapiens)
Assay: qHTS Assay for Inhibitors and Activators of N370S glucocerebrosidase as a Potential Chaperone Treatment of Gaucher Disease: Purified Non-mutant Confirmation for Probe SAR
Conditions: purified GC, 4MU-beta-glucoside fluorescence, 40 min; series mostly up to 57.5 µM
Results filed as inconclusive are left out. Activity calls are given as the source filed them. The call rests on the fitted dose curve; in most records, active means well fitted activation curve with a large enough effect; inconclusive means small, poorly fitted or top-dose-only effect; inactive means flat fitted curve, though single readings scatter.
Entry note: the call must match one of active, inactive

Field: example entries. Status: answers known.
{"substance smiles": "Cc1cc(C)n2ncc(C(=O)Nc3ccncc3)c2n1", "category": "inactive"}
{"substance smiles": "COc1ccc(NC(=O)c2cnn3c(C)cc(C)nc23)cc1Cl", "category": "active"}
{"substance smiles": "C#Cc1ccc(NC(=O)c2cnn3c(C)cc(C)nc23)cc1", "category": "active"}
{"substance smiles": "Cc1cc(C)n2ncc(C(=O)Nc3ccc(C)c(C)c3)c2n1", "category": "active"}
{"substance smiles": "CC(=O)c1ccc(NC(=O)c2cnn3c(C)cc(C)nc23)cc1", "category": "inactive"}

What was the test verdict on `Cc1cc(C)n2ncc(C(=O)NCc3ccccc3)c2n1` ?
active

What was the test verdict on `Cc1ccc(NC(=O)c2cnn3c(C)cc(C)nc23)cc1` ?
active

What was the test verdict on `Cc1cc(C)n2ncc(C(=O)Nc3ccc4c(c3)OCO4)c2n1` ?
active

What was the test verdict on `Cc1cc(C)n2ncc(C(=O)Nc3ccccc3)c2n1` ?
active

What was the test verdict on `Cc1cc(C)n2ncc(C(=O)Nc3ccc4c(c3)CCC4)c2n1` ?
active

What was the test verdict on `Cc1cc(C)n2ncc(C(=O)N3CCCC3)c2n1` ?
inactive

What was the test verdict on `Cc1cc(C)n2ncc(C(=O)Nc3ccc4c(c3)OCCO4)c2n1` ?
active

What was the test verdict on `COc1ccc(NC(=O)c2cnn3c(C)cc(C)nc23)cc1` ?
active
